- tgt: T1, RET tripeptide (nucleolin loop fragment) (UniProt P19338 604-606)
- T1 chain: RET
- experimental.protocol: MST; 100 mM KCl, 25 C; MST: 200 nM FAM-oligo; 25 mM PBS pH 7.05, 100 mM KCl (DNA TA 25 C, RNA TA 40 C) or 25 mM K-phosphate pH 7.05, 100 mM KCl (2N3M, 25 C), Hill fit; NMR: 500 uM DNA TA, 25 mM K-phosphate pH 7.4, 100 mM KCl, 10% D2O, 298 K
- condition.notes: label: 5'-FAM; intramolecular G-quadruplex
measured.metric: Kd (nM)
// return numeric value only (unit: nM, not printed)

Asked: Query (binder): TGGTGGTGGTTGTTGTGGTGGTGGTGGT (structured_DNA) [2N3M (AS1411 derivative, FAM)] ; field requested: Kd
Given back: 100
